target-or-test-system: hGIPR (Homo sapiens)
Sequence (P48546 22-466): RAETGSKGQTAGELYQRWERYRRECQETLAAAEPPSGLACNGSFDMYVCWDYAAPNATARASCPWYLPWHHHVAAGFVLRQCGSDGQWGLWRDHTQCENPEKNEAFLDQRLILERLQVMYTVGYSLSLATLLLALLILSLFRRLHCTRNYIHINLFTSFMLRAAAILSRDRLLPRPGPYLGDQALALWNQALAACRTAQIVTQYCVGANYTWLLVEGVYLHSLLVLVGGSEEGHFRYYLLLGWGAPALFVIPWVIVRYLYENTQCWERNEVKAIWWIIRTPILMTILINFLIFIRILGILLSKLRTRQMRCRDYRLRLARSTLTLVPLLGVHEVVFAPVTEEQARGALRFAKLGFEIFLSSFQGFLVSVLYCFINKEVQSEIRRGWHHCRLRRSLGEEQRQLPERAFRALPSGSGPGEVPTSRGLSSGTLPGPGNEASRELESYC
test-description: Functional cAMP activation in the presence of 0.1% casein (no HSA);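 note: intracellular cAMP rise after 30 min at 37 °C read by HTRF against a standard curve, scaled between buffer alone (0%) and top control ligand concentration (100%), four-parameter fit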
Assay type: cell-based
experimental-context: read-out: Relative cAMP EC50, hGIPR
Starred links: 1 amine or outer side, 2 acyl side, 3 side chain; linkers in the order of their positions; H or OH if unused. Non-standard residues stand in square brackets, D forms with d. Groups on a side chain read outwards from the residue. *: point of attachment. C18 diacid = O=C(O)CCCCCCCCCCCCCCCCC(=O)*; αMePhe(2-F) = C[C@](N)(Cc1ccccc1F)C(=O)O; γGlu = O=C(O)[C@H](CCC(=O)[*:2])N[*:1]; αMe4Pal = C[C@](N)(Cc1ccncc1)C(=O)O; αMeY = C[C@](N)(Cc1ccc(O)cc1)C(=O)O; 4Pal = N[C@@H](Cc1ccncc1)C(=O)O; αMeL = CC(C)C[C@](C)(N)C(=O)O; αMeS = C[C@](N)(CO)C(=O)O; Orn = NCCC[C@H](N)C(=O)O; AEEA = NCCOCCOCC(=O)O; Aib = CC(C)(N)C(=O)O
For each record, write down the corresponding EC50.
Report only the number, with the unit nM understood.

Exercise: Please tell me: EC50 of H-Y[Aib]QGT[αMePhe(2-F)]TSD[4Pal][αMeS]I[αMeL]LD[Orn]K([AEEA-γGlu-C18 diacid])AA[Aib]EFI[dE][αMeY]LLEGGPSSGAPPPSGS-NH2 [Example 672] , system hGIPR (Homo sapiens)?
Key: 0.014

Exercise: Please tell me: EC50 of H-Y[Aib]QGT[αMePhe(2-F)]TSD[4Pal]SI[αMeL]LD[Orn]K([AEEA-γGlu-C18 diacid])AQ[αMe4Pal][Orn]FI[dE]YLIEGGPSSGEPPPEGT-NH2 [Example 500] , system hGIPR (Homo sapiens)?
Key: 0.0375

Exercise: Please tell me: EC50 of H-Y[Aib]QGT[αMePhe(2-F)]TSD[4Pal]SILLDKK([γGlu-γGlu-C18 diacid])AQ[Aib]AFIE[αMeY]LEEGGPSSGAPPPSGTGE-NH2 [Example 664] , system hGIPR (Homo sapiens)?
Key: 0.0159

Exercise: Please tell me: EC50 of H-Y[Aib]QGT[αMePhe(2-F)]TSD[4Pal]SILLDKK([γGlu-γGlu-C18 diacid])AQ[Aib]AFIEYLTEGGPSSGAPPPSGTE-NH2 [Example 554] , system hGIPR (Homo sapiens)?
Key: 0.0323

Exercise: Please tell me: EC50 of H-Y[Aib]QGT[αMePhe(2-F)]TSD[4Pal][αMeS]I[αMeL]LD[Orn]K([AEEA-γGlu-C18 diacid])AQ[Aib][Orn]FI[dE][αMeY]LIEGGPSSGEPEPSEG-NH2 [Example 481] , system hGIPR (Homo sapiens)?
Key: 0.0164
